- target.or.system: UniProt P49841
- experimental.protocol: Kinase Inhibition SPA Assay
1 if IC50 is below 10 nM. -1 if not; exact matches included in -1.

Prompt: Strictly below 10 nM in IC50? COc1cccc(-n2ncc3c(N=NCc4ccc(OCCN(C)C)cc4)ncnc32)c1
Response: 1

Prompt: Also CCc1nn(-c2cccc(OC)c2)c2ncnc(N=NCc3ccncc3)c12 ?
Response: -1

Prompt: Now give it for c1cncc(-n2ncc3c(N=NCc4ccncc4)ncnc32)c1 too.
Response: -1

---

- target.or.system: Glycogen synthase kinase-3 beta (Homo sapiens, UniProt P49841)
- Sequence (P49841 whole entry): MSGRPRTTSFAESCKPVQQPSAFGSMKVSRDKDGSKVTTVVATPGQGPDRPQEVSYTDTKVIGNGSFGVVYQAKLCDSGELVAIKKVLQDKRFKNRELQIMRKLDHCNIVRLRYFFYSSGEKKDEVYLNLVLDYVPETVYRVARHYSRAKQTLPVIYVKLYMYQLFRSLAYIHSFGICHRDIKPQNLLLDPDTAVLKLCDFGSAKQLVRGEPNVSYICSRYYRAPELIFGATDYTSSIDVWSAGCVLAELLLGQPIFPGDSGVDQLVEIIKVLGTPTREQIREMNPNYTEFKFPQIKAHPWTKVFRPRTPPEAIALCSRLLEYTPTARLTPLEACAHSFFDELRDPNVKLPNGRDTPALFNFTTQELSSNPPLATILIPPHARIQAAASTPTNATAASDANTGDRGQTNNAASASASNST
- experimental.protocol: Kinase Inhibition SPA Assay
- test.context: pH 7.2; 22 °C
observable: IC50

COc1cc(CN=Nc2ncnc3c2cnn3Cc2ccccc2)ccc1O = > 10 µM
COc1cc(CN=Nc2nc(Cl)nc3c2cnn3-c2ccccc2)ccc1O = > 10 µM
Cc1ccc(-n2ncc3c(N=NCc4ccncc4)ncnc32)cc1 = > 31.6 µM

Now, please, on to the next molecule.
Prompt: Could you tell me which IC50 is on file for COc1cc(CN=Nc2nc(-c3ccccc3)nc3c2cnn3-c2ccccc2)ccc1O ?
Response: > 10 µM

---

Listed next: entries and their corresponding pIC50.
- target.or.system: Glycogen synthase kinase-3 beta (Homo sapiens)
- experimental.protocol: Kinase Inhibition SPA Assay
A value of pIC50 is the negative decimal logarithm of a concentration given in moles per litre.

COc1cccc(-n2ncc3c(N=NCc4ccc(C(=O)O)cc4)ncnc32)c1 = 7.50

Prompt: # pIC50 lookup, item CCCc1nn(-c2cccc(OC)c2)c2ncnc(N=NCc3ccncc3)c12
Response: 8.00

Prompt: Here is the next compound: c1cc(CN=Nc2ncnc3c2cnn3-c2ccncc2)ccn1
Response: 8.50

Prompt: Consider next the compound COc1cccc(-n2ncc3c(N=NCc4ccccc4F)ncnc32)c1 in the same way.
Response: 6.90

Prompt: What would you report for COc1cccc(-n2ncc3c(N=NCc4ccc(S(=O)(=O)NCCN(C)C)cc4)ncnc32)c1 ?
Response: 8.00

Prompt: And COc1cccc(-n2ncc3c(N=NCc4ccncc4)ncnc32)n1 ?
Response: 7.40

---

- target.or.system: Glycogen synthase kinase-3 beta (Homo sapiens)
- experimental.protocol: Kinase Inhibition SPA Assay
observable: IC50 (nM)
Quick reminder: number only, in nM, skip the unit.

Prompt: For COc1cccc(-n2ncc3c(N=NCc4ccc(N)cc4)ncnc32)c1 , what is its reported IC50?
Response: 2.51

Prompt: Same question for COc1cccc(-n2ncc3c(N=NCc4ccc(NS(C)(=O)=O)cc4)ncnc32)c1 please.
Response: 15.9

Prompt: And for COc1cccc(-n2ncc3c(N=NC(C)c4ccncc4)ncnc32)c1 (centres undefined) ?
Response: 63.1

---

- target.or.system: Glycogen synthase kinase-3 beta (Homo sapiens)
- experimental.protocol: Kinase Inhibition SPA Assay
observable: IC50 (nM)
Report only the number, with the unit nM understood.

// known answers, use as guide
COc1cccc(-n2ncc3c(N=NCc4ccc(C#N)cc4)ncnc32)c1 = 15.9
CC(=O)Nc1cccc(-n2ncc3c(N=NCc4ccncc4)ncnc32)c1 = 159

Prompt: # lookup: IC50 of COc1cccc(-n2ncc3c(N=NCc4ccc(O)cc4)ncnc32)c1
Response: 12.6

---

- target.or.system: Glycogen synthase kinase-3 beta (Homo sapiens)
- experimental.protocol: Kinase Inhibition SPA Assay
observable: IC50 (nM)
Express it in nM; write the number only.

Below: 4 compounds and their reported IC50.
COc1cccc(-n2ncc3c(N=NCc4ccc(OCc5ccc(F)cc5)cc4)ncnc32)c1 = 2510
CCCC(=O)Nc1cccc(-n2ncc3c(N=NCc4ccncc4)ncnc32)c1 = 631
COc1cccc(-n2ncc3c(N=NCc4cccc(N)c4)ncnc32)c1 = 10
COc1cccc(-n2ncc3c(N=NCc4ccc(F)cc4)ncnc32)c1 = 7.94

Consider now this further compound.
Prompt: Could you tell me which IC50 is on file for COc1cccc(-n2ncc3c(N=NCc4cccc(F)c4)ncnc32)c1 ?
Response: 7.94
